Answer each item with its documented melting point.

Q) Return value of melting point for input `NC1(c2cccc(Br)c2)CC1` , no commentary.
A) 135 to 137 °C

Q) Return value of melting point for input `CCCOc1ccc(/C=C/c2nc3c(c(=O)n(CC)c(=O)n3CC)n2C)cc1` , no commentary.
A) 156 °C

Q) Return value of melting point for input `Cc1ccc(S(=O)(=O)OC[C@H]2COc3cc(F)c4c(c3O2)CC(=O)N4)cc1` , no commentary.
A) 205 to 206 °C

Q) Return value of melting point for input `O=[N+]([O-])c1ccccc1/C=C/c1ccc(Cl)cc1[N+](=O)[O-]` , no commentary.
A) 158 to 159 °C

Q) Return value of melting point for input `CC(=O)NC[C@H]1CN(c2cc(F)c(N3CCC(n4nnc(N5CCOCC5)n4)CC3)c(F)c2)C(=O)O1` , no commentary.
A) 232 to 234 °C

Q) Return value of melting point for input `O=C(OCCC1CCCCC1)c1ncn2c1[C@@H]1CCCN1C(=O)c1c(Cl)cccc1-2` , no commentary.
A) 131 to 132 °C

Q) Return value of melting point for input `COP(=O)(Nc1ccc([N+](=O)[O-])c(NCCc2ccccc2)c1)OC` , no commentary.
A) 128 °C

Q) Return value of melting point for input O=C1N(CC2CCCO2)c2ccccc2C12COc1cc3c(cc12)OCCCO3 (configuration not stated) , no commentary.
A) 134 to 138 °C

Q) Return value of melting point for input `CNc1nc(C(=O)c2ccc([N+](=O)[O-])c(OC)c2)n2ccccc12` , no commentary.
A) 208 °C

Q) Return value of melting point for input `Cc1nc[nH]c1C(=O)OC(C)C` , no commentary.
A) 188 to 190 °C

Q) Return value of melting point for input O=C1OC(c2ccccc2)N=C1CCCNC(=O)c1ccccc1 (configuration not stated) , no commentary.
A) 135 to 138 °C

Q) Return value of melting point for input `CCCn1cnc2c1c1n[nH]c(=O)n1c(=O)n2CCC` , no commentary.
A) 217 to 218 °C

====

Answer each item with its documented melting point.

Q) Return value of melting point for input `O=S(=O)(CF)c1ccc(C2=C(c3ccc(F)cc3)CCC2)cc1` , no commentary.
A) 123 to 124 °C

Q) Return value of melting point for input `COCCCn1c2ccc(O)cc2c2c3c(c(-c4ccccc4Cl)cc21)C(=O)NC3=O` , no commentary.
A) 260 to 262 °C

Q) Return value of melting point for input `CCCN(c1cccc2cc(-c3nccs3)[nH]c12)S(=O)(=O)c1cccs1` , no commentary.
A) 130 to 131 °C

====

Answer each item with its documented melting point.

Q) Return value of melting point for input `C#CCn1c(-c2ccccc2)nc(CC)c(CC(N)=O)c1=O` , no commentary.
A) 196 to 198 °C

Q) Return value of melting point for input `CCOC(=O)c1ccc(C(=O)Sc2cccn3c(=O)c(C(=O)OCC)cnc23)cc1` , no commentary.
A) 146 to 148 °C

Q) Return value of melting point for input `COc1ccc(/C=C/CNc2cccc(-c3ccnc4c(C(=O)c5cccs5)cnn34)c2)cc1` , no commentary.
A) 176 to 179 °C

Q) Return value of melting point for input COc1cc(C(=O)N2Cc3ccccc3Cc3ccccc32)ccc1NC(=O)C1(C)C=CC=CC1 (centres undefined) , no commentary.
A) 209 to 210 °C

Q) Return value of melting point for input `Nc1cc(Cl)ccc1Oc1c(C(=O)O)n(Cc2ccccc2)c2ccccc12` , no commentary.
A) 218 to 219 °C

Q) Return value of melting point for input `CC(C)(O)c1ccc(CCl)cc1` , no commentary.
A) 101 to 103 °C

Q) Return value of melting point for input `CC(=O)N(c1ccc(C(F)(F)F)cc1)c1nccc(-c2cccc(Cl)c2)n1` , no commentary.
A) 129 to 130 °C

Q) Return value of melting point for input `CCNC(=O)Nc1ccc(-c2cc3c(Nc4cccc(Cl)c4)ncnc3[nH]2)cc1` , no commentary.
A) > 290 °C

Q) Return value of melting point for input `COc1ccc(-c2nc3cc(Cl)c(Cl)cc3[nH]2)cc1N` , no commentary.
A) > 300 °C

Q) Return value of melting point for input `O=C1CCC(c2ccc(O)cc2)=NN1` , no commentary.
A) 157 to 159 °C

Q) Return value of melting point for input O=C(OCC1OC(c2ccc(Cl)c(Cc3cc4ccccc4s3)c2)C(OC(=O)c2ccccc2)C(OC(=O)c2ccccc2)C1O)c1ccccc1 (centres undefined) , no commentary.
A) 215 to 217 °C

Q) Return value of melting point for input `Nc1cc(F)c(C2CCSCC2)c(F)c1` , no commentary.
A) 118 to 119 °C

Q) Return value of melting point for input `Cc1cc2c(cc1C)C(=O)C(Nc1ccccc1)=CC2=O` , no commentary.
A) 208 to 210 °C

Q) Return value of melting point for input `CCCCNC(=O)NS(=O)(=O)c1cccc(C(=O)OC)c1I` , no commentary.
A) 163 to 167 °C

====

Reported Metric: melting point

Q) Return value of melting point for input `CCOC(=O)C=C(c1ccc(Br)s1)c1ccc(Br)s1` , no commentary.
A) 69 to 70 °C

Q) Return value of melting point for input CN1CCCCC1CCc1ccccc1NC(=O)c1ccc(C(C)(C)C)cc1 (stereo not given) , no commentary.
A) 101 to 120 °C

Q) Return value of melting point for input `COC(=O)c1ccc(NC(C)=O)c(C=NO)c1` , no commentary.
A) 200 to 203 °C

Q) Return value of melting point for input COc1cc2c(cc1OC)C(C(C)C)C(=O)CC2 (stereo not given) , no commentary.
A) 77 to 79 °C

Q) Return value of melting point for input `CCSc1nc(C(C)(C)C)c[nH]1` , no commentary.
A) 116 to 120 °C

====

Reported Metric: melting point

Q) Return value of melting point for input N#CC1CN1C(=O)c1ccc(-c2ccccc2)cc1 (stereo not drawn) , no commentary.
A) 104 to 106 °C

Q) Return value of melting point for input `CNC(=S)C1=CC(CF)(CF)Oc2ccc(C(F)(F)F)cc21` , no commentary.
A) 145 to 147 °C

Q) Return value of melting point for input `CCc1nn2ccccc2c1N(CCCF)C(=O)COC` , no commentary.
A) 59.9 to 63.9 °C

====

Answer each item with its documented melting point.

Q) Return value of melting point for input COC(=O)C(CCSC)NCC(=O)Nc1cccc2c1C(=O)c1c(NC(=O)CNC(CCSC)C(=O)OC)cccc1C2=O (stereo not given) , no commentary.
A) 126 to 127 °C

Q) Return value of melting point for input `CCc1nn(C2CCCC2)c(NC(=O)c2ccnc3ccccc23)c1C#N` , no commentary.
A) 156 to 161 °C

Q) Return value of melting point for input COc1ccc(C2CCc3cc(CC(=O)O)cc(Cl)c3N2)cc1 (stereo not given) , no commentary.
A) 140 to 141 °C

Q) Return value of melting point for input `Cc1oc2ccc(C#N)cc2c1Cl` , no commentary.
A) 132 to 134 °C

Q) Return value of melting point for input `CCOC(=O)COc1cccc(Br)c1CC(=O)O` , no commentary.
A) 181 to 183 °C

Q) Return value of melting point for input `COc1cc(-n2cnc(C)c2C)cc2oc(=O)c(C)c(C)c12` , no commentary.
A) 196 to 198 °C

Q) Return value of melting point for input `CCCCCCCCCCCCCCS(=O)(=O)c1cc(S(C)(=O)=O)ccc1-n1oc(C(C)(C)C)c(CCl)c1=O` , no commentary.
A) 110 to 111 °C

Q) Return value of melting point for input `O=c1c2ccccc2nnn1CCO` , no commentary.
A) 114 °C

Q) Return value of melting point for input `CCc1cc(=O)n2c3c(cc(C(O)(C(F)(F)F)C(F)(F)F)cc13)CCC2` , no commentary.
A) 209 to 210 °C

Q) Return value of melting point for input `COc1ccc(NC(=O)Oc2cccc3ccoc23)cc1` , no commentary.
A) 157 to 159 °C

====

Answer each item with its documented melting point.

Q) Return value of melting point for input `NC(=O)c1cccc(OCCCCCn2cnc3c(Cl)ncnc32)c1` , no commentary.
A) 132 to 133 °C

Q) Return value of melting point for input `Cc1ccc(-c2ccc3c(c2)C=C(C(=O)Nc2ccc(CN(CCO)CCO)cc2)CC3)cc1` , no commentary.
A) 150 to 151 °C

Q) Return value of melting point for input `COc1ccc(NS(=O)(=O)c2sc3ccc(Cl)cc3c2C)cc1N1CCN(C(=O)OC(C)(C)C)CC1` , no commentary.
A) 100 to 103 °C

Q) Return value of melting point for input `CCn1c(COC(N)=O)nc(C2CC2)c1Sc1cc(C#N)cc(C#N)c1` , no commentary.
A) 170 to 172 °C

Q) Return value of melting point for input `CN(C(N)=O)c1ccc(C(O)(C(F)(F)F)C(F)(F)F)cc1` , no commentary.
A) 181 to 184 °C

Q) Return value of melting point for input `COC=C(C(=O)OC)c1ccccc1CSc1ccc2ccccc2c1` , no commentary.
A) 52 to 58 °C

Q) Return value of melting point for input `Cc1oc(-c2ccco2)nc1COc1ccc(COc2ncccc2CC#N)cc1` , no commentary.
A) 141 to 142 °C

Q) Return value of melting point for input `C=CCNCCC(=O)O` , no commentary.
A) 194 to 195 °C

Q) Return value of melting point for input `Cn1cnc(COc2ccc(-c3cc(-c4nc(C(C)(C)C)[nH]c4-c4ccccn4)ccn3)cc2)c1` , no commentary.
A) 156 °C

Q) Return value of melting point for input `CCOC(=O)c1cc(=O)c2cc(Oc3ccccc3)c(NS(C)(=O)=O)cc2o1` , no commentary.
A) 155 to 156 °C

Q) Return value of melting point for input `COc1ccc2ncc3c(=O)n(-c4ccccc4)oc3c2c1` , no commentary.
A) 140 °C

Q) Return value of melting point for input `O=[N+]([O-])c1ccc(Oc2ccc(C(F)(F)F)cc2Cl)cc1Oc1ccc(C(F)(F)F)cc1Cl` , no commentary.
A) 111 to 113 °C

Q) Return value of melting point for input `O=C1c2ccccc2-n2cnc(-c3nc(CCl)cs3)c2[C@@H]2CCN12` , no commentary.
A) 248 to 249 °C
